Sourced from ChEMBL document CHEMBL1137131

# System: HCT-8
# test_details: In vitro cytotoxicity against HCT-8 cell line (human colon cancer) using MTT assay
# Format: functional, cell-based
measured_metric: IC50

Consider the worked cases shown below.
CC[C@@]1(O)C(=O)OCc2c1cc1n(c2=O)Cc2cc3cc(OCCC[n+]4cccc(C(C)=O)c4)ccc3nc2-1 | 3.15 µg/mL
CC[C@@]1(O)C(=O)OCc2c1cc1n(c2=O)Cc2cc3cc(OCC[n+]4ccccc4)ccc3nc2-1 | 0.45 µg/mL
CC[C@@]1(O)C(=O)OCc2c1cc1n(c2=O)Cc2cc3ccccc3nc2-1 [CAMPTOTHECIN] | < 0.005 µg/mL
CC[C@@]1(O)C(=O)OCc2c1cc1n(c2=O)Cc2cc3cc(OCC[n+]4cccc(O)c4)ccc3nc2-1 | 0.42 µg/mL

Asked: Tell me the measured IC50 of `CC[C@@]1(O)C(=O)OCc2c1cc1n(c2=O)Cc2cc3cc(OCC[n+]4cccc(CO)c4)ccc3nc2-1` , please.
Given back: 3.73 µg/mL

Asked: Tell me the measured IC50 of `CC[C@@]1(O)C(=O)OCc2c1cc1n(c2=O)Cc2cc3cc(OCCC[n+]4cccc(F)c4)ccc3nc2-1` , please.
Given back: 2.02 µg/mL

###

# Test system: KB
# test_details: In vitro cytotoxicity against KB cell line (human epidermoid carcinoma of the nasopharynx) using MTT assay
# Type: functional, cell-based
measured_metric: log10 of IC50 (log10 of the value in mg/L)
Reminder: these figures are log10 of reported IC50, in mg/L before transformation.

CC[C@@]1(O)C(=O)OCc2c1cc1n(c2=O)Cc2cc3cc(OCC[n+]4cccc(C(C)=O)c4)ccc3nc2-1 | 0.51
CC[C@@]1(O)C(=O)OCc2c1cc1n(c2=O)Cc2cc3cc(OCCC[n+]4cccc(O)c4)ccc3nc2-1 | -1.40
CC[C@@]1(O)C(=O)OCc2c1cc1n(c2=O)Cc2cc3cc(OCCC[n+]4cccc(C(C)=O)c4)ccc3nc2-1 | 0.50
CC[C@@]1(O)C(=O)OCc2c1cc1n(c2=O)Cc2cc3cc(OCCC[n+]4cccc(CO)c4)ccc3nc2-1 | -0.51
CC[C@@]1(O)C(=O)OCc2c1cc1n(c2=O)Cc2cc3cc(OCC[n+]4cccc(C(=O)O)c4)ccc3nc2-1 | -0.51

Asked: Tell me the measured log10 of IC50 of `CC[C@@]1(O)C(=O)OCc2c1cc1n(c2=O)Cc2cc3cc(OCC[n+]4ccccc4)ccc3nc2-1` , please.
Given back: -0.48

Asked: Tell me the measured log10 of IC50 of CC[C@@]1(O)C(=O)OCc2c1cc1n(c2=O)Cc2cc3c(CN(C)C)c(O)ccc3nc2-1.Cl [TOPOTECAN HYDROCHLORIDE] , please.
Given back: -1.70

###

Entries and their IC50
# System: HCT-8
# test_details: In vitro cytotoxicity against HCT-8 cell line (human colon cancer) using MTT assay
# Type: functional, cell-based
# output: numeric value plus its unit

Consider the worked cases shown below.
CC[C@@]1(O)C(=O)OCc2c1cc1n(c2=O)Cc2cc3cc(OCCC[n+]4cccc(CO)c4)ccc3nc2-1 | 0.34 µg/mL
CC[C@@]1(O)C(=O)OCc2c1cc1n(c2=O)Cc2cc3cc(OCCC[n+]4cccc(O)c4)ccc3nc2-1 | 0.03 µg/mL

Asked: Tell me the measured IC50 of `CC[C@@]1(O)C(=O)OCc2c1cc1n(c2=O)Cc2cc3cc(OCC[n+]4cccc(C)c4)ccc3nc2-1` , please.
Given back: 1.42 µg/mL

Asked: Tell me the measured IC50 of CC[C@@]1(O)C(=O)OCc2c1cc1n(c2=O)Cc2cc3c(CN(C)C)c(O)ccc3nc2-1.Cl [TOPOTECAN HYDROCHLORIDE] , please.
Given back: 0.03 µg/mL

###

# Test system: HCT-8
# test_details: In vitro cytotoxicity against HCT-8 cell line (human colon cancer) using MTT assay
# Assay type: functional, cell-based
Entries and their IC50
Give the value, in units of µg/mL, as a plain number.

Consider the worked cases shown below.
CC[C@@]1(O)C(=O)OCc2c1cc1n(c2=O)Cc2cc3cc(OCC[n+]4cccc(C=O)c4)ccc3nc2-1 | 0.35
CC[C@@]1(O)C(=O)OCc2c1cc1n(c2=O)Cc2cc3cc(OCCC[n+]4cccc(C=O)c4)ccc3nc2-1 | 0.17
CC[C@@]1(O)C(=O)OCc2c1cc1n(c2=O)Cc2cc3cc(OCC[n+]4cccc(C(C)=O)c4)ccc3nc2-1 | 3.01
CC[C@@]1(O)C(=O)OCc2c1cc1n(c2=O)Cc2cc3cc(OCC[n+]4cccc(C(=O)O)c4)ccc3nc2-1 | 0.27
CC[C@@]1(O)C(=O)OCc2c1cc1n(c2=O)Cc2cc3cc(OCC[n+]4cccc(F)c4)ccc3nc2-1 | 0.38

Asked: Tell me the measured IC50 of `CC[C@@]1(O)C(=O)OCc2c1cc1n(c2=O)Cc2cc3cc(OCCC[n+]4cccc(C(=O)O)c4)ccc3nc2-1` , please.
Given back: 0.33

Asked: Tell me the measured IC50 of `CC[C@@]1(O)C(=O)OCc2c1cc1n(c2=O)Cc2cc3cc(OCCC[n+]4ccccc4)ccc3nc2-1` , please.
Given back: 0.03
